TARGET_SYSTEM: HIV-1 protease (Human immunodeficiency virus type 1 group M subtype B, UniProt P04585)
Construct: The protease (or proteinase) enzyme, consisting of only 99 amino acids
METHOD_NOTES: In vitro HIV protease inhibitory assay (fluorescently labeled substrate, avidin-polystyrene particles)
Format: biochemical
EXPERIMENTAL_PARAMETERS: HIV-1 dose 10.0 μM
# Lookup of reported inhibition at 10 µM keyed by entry

COMPOUND: CCCC1OC(=O)C(C(c2ccccc2)C2CC2)=C1O (stereo not shown)
inhibition at 10 µM (%): 61.1
//
COMPOUND: CCCC1(CCC)OC(=O)C(C(c2cccc(NS(=O)(=O)c3ccc4ccccc4n3)c2)C2CC2)=C1O (stereo not shown)
inhibition at 10 µM (%): 85
//
COMPOUND: CCCC1(CCC)OC(=O)C(C(Cc2ccccc2)c2cccc(NS(=O)(=O)c3cn(C)cn3)c2)=C1O (stereo not shown)
inhibition at 10 µM (%): 91.1
//
COMPOUND: CCCC1(CCC)OC(=O)C(C(c2cccc(NS(=O)(=O)c3cn(C)cn3)c2)C2CCCC2)=C1O (stereo not shown)
inhibition at 10 µM (%): 96
//
COMPOUND: CCCC1(CCc2ccccc2)OC(=O)C(C(c2ccccc2)C2CC2)=C1O (stereo not shown)
inhibition at 10 µM (%): 109
//
COMPOUND: O=C1OC(Cc2ccccc2)(Cc2ccccc2)C(O)=C1C(c1cccc(NS(=O)(=O)c2ccc(F)cc2)c1)C1CC1 (stereo not shown)
inhibition at 10 µM (%): 92.3
//
COMPOUND: N#Cc1ccc(S(=O)(=O)Nc2cccc(CC3=C(O)C(Cc4ccccc4)(Cc4ccccc4)OC3=O)c2)cc1
inhibition at 10 µM (%): 101
//
COMPOUND: CCCC1(CCC)OC(=O)C(C(c2cccc(NC(=O)OCc3ccccc3)c2)C2CC2)=C1O (stereo not shown)
inhibition at 10 µM (%): 106
//
COMPOUND: COC(=O)CC(CCc1ccccc1)C1OC(=O)C(C(c2ccccc2)C2CC2)=C1O (stereo not shown)
inhibition at 10 µM (%): 90.9
//
COMPOUND: Cn1cnc(S(=O)(=O)Nc2cccc(C(C3=C(O)C(Cc4ccccc4)(Cc4ccccc4)OC3=O)C(C)(C)C)c2)c1 (stereo not shown)
inhibition at 10 µM (%): 104
//
COMPOUND: CCCC1(Cc2ccccc2)OC(=O)C(C(c2cccc(NS(=O)(=O)c3cccc4cccnc34)c2)C(C)C)=C1O (stereo not shown)
inhibition at 10 µM (%): 114
//
COMPOUND: N#Cc1ccc(S(=O)(=O)Nc2cccc(C(C3=C(O)C(Cc4ccccc4)(Cc4ccccc4)OC3=O)C3CC3)c2)cc1 (stereo not shown)
inhibition at 10 µM (%): 96.8
//
COMPOUND: Cn1cnc(S(=O)(=O)Nc2cccc(C(C3=C(O)C(Cc4ccccc4)(Cc4ccccc4)OC3=O)C3CC3)c2)c1 (stereo not shown)
inhibition at 10 µM (%): 94.3
//
COMPOUND: CCCC1(CCC)OC(=O)C(C(c2cccc(NS(=O)(=O)c3ccccn3)c2)C2CC2)=C1O (stereo not shown)
inhibition at 10 µM (%): 104
//
COMPOUND: CC(C)C(C1=C(O)C(CCCc2ccccc2)OC1=O)c1ccccc1 (stereo not shown)
inhibition at 10 µM (%): 84.4
//
COMPOUND: CCCC1(CCC)OC(=O)C(C(c2cccc(NS(=O)(=O)c3cccc4cccnc34)c2)C2CC2)=C1O (stereo not shown)
inhibition at 10 µM (%): 125
//
COMPOUND: CCCC1(CCC)OC(=O)C(C(c2ccccc2)c2cccc(NS(=O)(=O)c3ccc(C#N)cc3)c2)=C1O (stereo not shown)
inhibition at 10 µM (%): 103
//
COMPOUND: CCCC1(CCC)OC(=O)C(C(c2cccc(NS(=O)(=O)c3cccc4ccccc34)c2)C2CC2)=C1O (stereo not shown)
inhibition at 10 µM (%): 126
//
COMPOUND: CCCC1(CCC)OC(=O)C(C(c2cccc([N+](=O)[O-])c2)C2CC2)=C1O (stereo not shown)
inhibition at 10 µM (%): 121
//
COMPOUND: CCCC1(Cc2ccccc2)OC(=O)C(C(c2cccc(NS(=O)(=O)c3cn(C)cn3)c2)C(C)C)=C1O (stereo not shown)
inhibition at 10 µM (%): 96.6
//
COMPOUND: CCC1(CC)OC(=O)C(C(c2ccccc2)C2CC2)=C1O (stereo not shown)
inhibition at 10 µM (%): 94
//
COMPOUND: C=CC(C1=C(O)C(CCCc2ccccc2)OC1=O)c1ccccc1 (stereo not shown)
inhibition at 10 µM (%): 66.3
//
COMPOUND: CC(C)(C)C(C1=C(O)C(CCCc2ccccc2)OC1=O)c1ccccc1 (stereo not shown)
inhibition at 10 µM (%): 84.4
//
COMPOUND: O=C1OC(CCCc2ccccc2)C(O)=C1C(c1ccccc1)C1CC1 (stereo not shown)
inhibition at 10 µM (%): 90.6
//
COMPOUND: CCCCC1(CCCC)OC(=O)C(C(c2ccccc2)C2CC2)=C1O (stereo not shown)
inhibition at 10 µM (%): 118
//
COMPOUND: CCCC1(CCC)OC(=O)C(C(c2cccc(NS(=O)(=O)c3ccc(C#N)cc3)c2)C(C)C)=C1O (stereo not shown)
inhibition at 10 µM (%): 101
//
COMPOUND: CCCC1(CCC)OC(=O)C(C(CC(C)C)c2cccc(NS(=O)(=O)c3cn(C)cn3)c2)=C1O (stereo not shown)
inhibition at 10 µM (%): 96.3
//
COMPOUND: CCCC(c1ccccc1)C1OC(=O)C(C(c2ccccc2)C2CC2)=C1O (stereo not shown)
inhibition at 10 µM (%): 103
//
COMPOUND: CCC(CC)C1OC(=O)C(C(c2ccccc2)C2CC2)=C1O (stereo not shown)
inhibition at 10 µM (%): 104
//
COMPOUND: CC1(Cc2ccccc2)OC(=O)C(C(c2ccccc2)C2CC2)=C1O (stereo not shown)
inhibition at 10 µM (%): 98.2
//
COMPOUND: CCCC1(CCC)OC(=O)C(C(Cc2ccccc2)c2cccc(NS(=O)(=O)c3ccc(C#N)cc3)c2)=C1O (stereo not shown)
inhibition at 10 µM (%): 78.1
//
COMPOUND: O=C1OC(C(O)CCc2ccccc2)C(O)=C1C(c1ccccc1)C1CC1 (stereo not shown)
inhibition at 10 µM (%): 73.3
//
COMPOUND: O=C1OC2(CCCCCC2)C(O)=C1C(c1ccccc1)C1CC1 (stereo not shown)
inhibition at 10 µM (%): 108
//
COMPOUND: CCC1CCCCC12OC(=O)C(C(c1ccccc1)C1CC1)=C2O (single isomer, unassigned) [IX-33]
inhibition at 10 µM (%): 99.4

----------
TARGET_SYSTEM: HIV-1 protease (Human immunodeficiency virus type 1 group M subtype B, UniProt P04585)
Construct: The protease (or proteinase) enzyme, consisting of only 99 amino acids
METHOD_NOTES: In vitro HIV protease inhibitory assay (fluorescently labeled substrate, avidin-polystyrene particles)
Type: biochemical
EXPERIMENTAL_PARAMETERS: HIV-1 dose 30.0 μM
Experimental: The HIV protease screening assay is based on a fluorescently labeled substrate which can be resolved from nonlabeled cleavage product using avidin-polystyrene particles, 0.7-0.9 μm. […] The labeled cleavage product is separated from the unreacted substrate via filtration and is read on the IDEXX Screen Machine. (IDEXX Corporation--Portland, Me.) The data are analyzed by appropriate computer algorithms to ascertain percent inhibition values. […]
Listed compounds paired with reported inhibition at 30 µM

COMPOUND: CCCC1(CCC)OC(=O)C(C(c2cccc(NS(=O)(=O)c3cn(C)cn3)c2)C2CC2)=C1O (stereo not shown) [IX-17]
inhibition at 30 µM (%): 108
--
COMPOUND: CCCC1(CCC)OC(=O)C(C(c2cccc(NS(=O)(=O)c3ccc(C#N)cc3)c2)C2CCCC2)=C1O (stereo not shown) [IX-41]
inhibition at 30 µM (%): 101
--
COMPOUND: CCCC1(CCC)OC(=O)C(C(c2cccc(NS(=O)(=O)c3ccccn3)c2)C2CC2)=C1O (stereo not shown) [IX-52]
inhibition at 30 µM (%): 99.9
--
COMPOUND: CCCC1(CCC)OC(=O)C(C(c2ccccc2)c2cccc(NS(=O)(=O)c3cn(C)cn3)c2)=C1O (stereo not shown) [IX-48]
inhibition at 30 µM (%): 89.1

----------
TARGET_SYSTEM: HIV-1 protease (Human immunodeficiency virus type 1 group M subtype B)
Construct: The protease (or proteinase) enzyme, consisting of only 99 amino acids
METHOD_NOTES: In vitro HIV protease inhibitory assay (fluorescently labeled substrate, avidin-polystyrene particles)
Format: biochemical
EXPERIMENTAL_PARAMETERS: HIV-1 dose 30.0 μM
READOUT_KIND: inhibition at 30 µM (%)

COMPOUND: CCCC1(CCC)OC(=O)C(C(c2cccc(NS(=O)(=O)c3ccc(C#N)cc3)c2)C(C)C)=C1O (stereo not drawn)
REPORTED: 112
--
COMPOUND: O=C1OC2(CCCCC2CCc2ccccc2)C(O)=C1C(c1ccccc1)C1CC1 (stereo not drawn)
REPORTED: 86
--
COMPOUND: O=C1OC(CC=Cc2ccccc2)C(O)=C1C(c1ccccc1)C1CC1 (stereo not drawn)
REPORTED: 82.1
--
COMPOUND: O=C1OC(C(O)CCc2ccccc2)C(O)=C1C(c1ccccc1)C1CC1 (stereo not drawn)
REPORTED: 78.2
--
COMPOUND: CCCC1(CCC)OC(=O)C(C(c2cccc(NS(=O)(=O)c3cccc4ccccc34)c2)C2CC2)=C1O (stereo not drawn)
REPORTED: 105
--
COMPOUND: O=C1OC2(CCCCCCC2)C(O)=C1C(c1ccccc1)C1CC1 (stereo not drawn)
REPORTED: 110
--
COMPOUND: CCCC1(CCC)OC(=O)C(C(c2ccccc2)c2cccc(NS(=O)(=O)c3ccc(C#N)cc3)c2)=C1O (stereo not drawn)
REPORTED: 88.3
--
COMPOUND: CCCCC(CC)C1OC(=O)C(C(c2ccccc2)C2CC2)=C1O (stereo not drawn)
REPORTED: 99.2
--
COMPOUND: CCC1(CCc2ccccc2)OC(=O)C(C(c2ccccc2)C2CC2)=C1O (stereo not drawn)
REPORTED: 103

Where do the numbers come from? From patent US5977169A.
